- Target Of Assay: human CD33 P132S (human, UniProt P20138 18-364)
- Sequence (P20138 18-364 P132S limits assumed): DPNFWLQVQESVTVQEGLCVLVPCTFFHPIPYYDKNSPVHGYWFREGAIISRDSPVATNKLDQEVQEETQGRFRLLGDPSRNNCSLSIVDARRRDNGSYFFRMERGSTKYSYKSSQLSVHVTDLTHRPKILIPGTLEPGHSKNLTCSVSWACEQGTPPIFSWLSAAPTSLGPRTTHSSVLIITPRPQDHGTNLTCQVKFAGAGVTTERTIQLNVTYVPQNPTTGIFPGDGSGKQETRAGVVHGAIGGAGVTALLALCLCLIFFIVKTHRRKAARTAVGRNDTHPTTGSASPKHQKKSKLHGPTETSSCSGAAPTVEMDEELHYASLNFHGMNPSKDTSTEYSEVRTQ
- Assay Comment: flow cytometry, HEK293-T, IgG;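 further: CD33 point mutants transiently expressed, antibody binding measured by fluorescence in duplicate, background subtracted and scaled to binding on wild-type CD33 as 100%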
Experimental Readout: Mean % WT Binding (% WT binding)
Answers are plain numbers, in % WT binding.

Below, 3 binders whose answers are already recorded.
1. Refmab #1 (antibody, human IgG1, V domains shown, tested in IgG format; also called hP67.6) VH: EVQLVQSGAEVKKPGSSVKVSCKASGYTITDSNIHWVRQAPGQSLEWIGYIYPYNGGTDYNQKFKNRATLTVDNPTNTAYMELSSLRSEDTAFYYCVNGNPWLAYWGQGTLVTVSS VL: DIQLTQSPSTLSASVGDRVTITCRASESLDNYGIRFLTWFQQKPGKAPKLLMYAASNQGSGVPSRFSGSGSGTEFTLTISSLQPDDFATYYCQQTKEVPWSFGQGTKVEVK    92.9
2. Refmab #4 (antibody, human IgG1, V domains shown, tested in IgG format) VH: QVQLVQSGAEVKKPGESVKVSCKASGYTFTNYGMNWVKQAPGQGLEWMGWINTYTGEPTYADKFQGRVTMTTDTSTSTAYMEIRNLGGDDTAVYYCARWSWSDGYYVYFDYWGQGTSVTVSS VL: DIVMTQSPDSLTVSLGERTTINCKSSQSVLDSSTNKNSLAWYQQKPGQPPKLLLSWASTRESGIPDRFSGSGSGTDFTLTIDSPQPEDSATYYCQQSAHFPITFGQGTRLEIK    102
3. Refmab #2 (antibody, human IgG1, V domains shown, tested in IgG format) VH: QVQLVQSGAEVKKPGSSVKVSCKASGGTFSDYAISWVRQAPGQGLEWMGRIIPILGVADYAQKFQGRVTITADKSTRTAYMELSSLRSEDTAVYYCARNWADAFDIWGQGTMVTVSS VL: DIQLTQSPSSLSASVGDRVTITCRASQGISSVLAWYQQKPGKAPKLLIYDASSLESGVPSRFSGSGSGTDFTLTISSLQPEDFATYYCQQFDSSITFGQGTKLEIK    110

Below: the item to evaluate.
Prompt: Returns the measured Mean % WT Binding for the input binder. Input: Refmab #3 (antibody, human IgG1, V domains shown, tested in IgG format) VH: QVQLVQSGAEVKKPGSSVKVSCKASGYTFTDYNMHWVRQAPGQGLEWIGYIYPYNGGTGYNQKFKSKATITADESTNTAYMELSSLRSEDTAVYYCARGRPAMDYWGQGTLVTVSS VL: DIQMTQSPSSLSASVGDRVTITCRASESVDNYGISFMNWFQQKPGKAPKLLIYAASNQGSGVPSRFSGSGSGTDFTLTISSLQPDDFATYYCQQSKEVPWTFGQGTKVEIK
Completion: 95.8
